Tested on: Calf thymus DNA
assay protocol: Binding affinity towards calf thymus DNA, at pH 5
Format: nucleic-acid assay
study conditions: Bos taurus
assay endpoint: K app (M⁻¹)
Give the value, in units of M⁻¹, as a plain number.

// below: answered molecules
- Cc1cc2c3cc(O)ccc3[nH]c2c2c[n+](C)ccc12.[I-]: 1e+06
- CC(=O)[O-].Cc1c2cc[n+](C)cc2c(C)c2c1[nH]c1ccccc12: 230000
- COc1ccc2[nH]c3c(ccc4c3ccc[n+]4C)c2c1: 60000
- c1cnc2c(c1)ccc1c3ccccc3[nH]c12: 100000

# input for lookup
Prompt line: Return K app for the following molecule: COc1ccc2[nH]c3c4c[n+](C)ccc4c(C)cc3c2c1
Response line: 100000
